Where these numbers come from: paper PMC11571207

Tested on: P. aeruginosa PAO1
procedure-details: microbe, parasite or virus in culture
condition-details: P. aeruginosa PAO1; full Müller–Hinton medium; 16–20 h at 37 °C
No end group written: not given here.
Overview of recorded MIC P. aeruginosa, Full MHB for various sequences

{"seq-text": "VDKPPYLPRPRPPRRIYNR [sr9Cterm-Onc] (VDKPPYLPRPRPPRRIYNR-NH2; also: residues 11-19 stereorandomized (1:1 L/D mixture))", "bound-sign": "=", "MIC P. aeruginosa, Full MHB, µg/mL": 64}
{"seq-text": "VDKPPYLPRPRPPRRIYNR [sr5Cterm-Onc] (VDKPPYLPRPRPPRRIYNR-NH2; also: residues 15-19 stereorandomized (1:1 L/D mixture))", "bound-sign": "=", "MIC P. aeruginosa, Full MHB, µg/mL": 64}
{"seq-text": "VDKPPYLPRPRPPRRIYNR [sr7Cterm-Onc] (VDKPPYLPRPRPPRRIYNR-NH2; also: residues 13-19 stereorandomized (1:1 L/D mixture))", "bound-sign": "=", "MIC P. aeruginosa, Full MHB, µg/mL": 64}
{"seq-text": "VDKPPYLPRPRPPRRIYNR [sr6Cterm-Onc] (VDKPPYLPRPRPPRRIYNR-NH2; also: residues 14-19 stereorandomized (1:1 L/D mixture))", "bound-sign": "=", "MIC P. aeruginosa, Full MHB, µg/mL": 64}
{"seq-text": "VDKPPYLPRPRPPRRIYNR [sr3Nterm-Onc] (VDKPPYLPRPRPPRRIYNR-NH2; also: residues 1-3 stereorandomized (1:1 L/D mixture))", "bound-sign": ">", "MIC P. aeruginosa, Full MHB, µg/mL": 64}
{"seq-text": "VDKPPYLPRPRPPRRIYNR [sr12Cterm-Onc] (VDKPPYLPRPRPPRRIYNR-NH2; also: residues 8-19 stereorandomized (1:1 L/D mixture))", "bound-sign": ">", "MIC P. aeruginosa, Full MHB, µg/mL": 64}
{"seq-text": "VDKPPYLPRPRPPRRIYNR [sr3N5Cterm-Onc] (VDKPPYLPRPRPPRRIYNR-NH2; also: residues 1-3 and 15-19 stereorandomized (1:1 L/D mixture))", "bound-sign": ">", "MIC P. aeruginosa, Full MHB, µg/mL": 64}
{"seq-text": "VDKPPYLPRPRPPRRIYNR [sr14Nterm-Onc] (VDKPPYLPRPRPPRRIYNR-NH2; also: residues 1-14 stereorandomized (1:1 L/D mixture))", "bound-sign": ">", "MIC P. aeruginosa, Full MHB, µg/mL": 64}
{"seq-text": "VDKPPYLPRPRPPRRIYNR [sr8Cterm-Onc] (VDKPPYLPRPRPPRRIYNR-NH2; also: residues 12-19 stereorandomized (1:1 L/D mixture))", "bound-sign": "=", "MIC P. aeruginosa, Full MHB, µg/mL": 64}
{"seq-text": "VDKPPYLPRPRPPRRIYNR [sr-Onc] (VDKPPYLPRPRPPRRIYNR-NH2; also: all 19 residues stereorandomized (1:1 L/D mixture))", "bound-sign": ">", "MIC P. aeruginosa, Full MHB, µg/mL": 64}
{"seq-text": "VDKPPYLPRPRPPRRIYNR [sr11Cterm-Onc] (VDKPPYLPRPRPPRRIYNR-NH2; also: residues 9-19 stereorandomized (1:1 L/D mixture))", "bound-sign": ">", "MIC P. aeruginosa, Full MHB, µg/mL": 64}

----------
Entries annotated with measured MIC A. baumannii ATCC19606
Tested on: A. baumannii ATCC19606
procedure-details: microbe, parasite or virus in culture
condition-details: supplement CSV; 12.5% MH pH 7.4
No end group written: not given here.

{"seq-text": "VDKPPYLPRPRPPRRIYNR [sr3N5Cterm-Onc] (VDKPPYLPRPRPPRRIYNR-NH2; also: residues 1-3 and 15-19 stereorandomized (1:1 L/D mixture))", "MIC A. baumannii ATCC19606": "4 µg/mL"}
{"seq-text": "VDKPPYLPRPRPPRRIYNR [sr7Cterm-Onc] (VDKPPYLPRPRPPRRIYNR-NH2; also: residues 13-19 stereorandomized (1:1 L/D mixture))", "MIC A. baumannii ATCC19606": "4 µg/mL"}
{"seq-text": "VDKPPYLPRPRPPRRIYNR [sr-Onc] (VDKPPYLPRPRPPRRIYNR-NH2; also: all 19 residues stereorandomized (1:1 L/D mixture))", "MIC A. baumannii ATCC19606": "8 µg/mL"}
{"seq-text": "VDKPPYLPRPRPPRRIYNR [sr6Cterm-Onc] (VDKPPYLPRPRPPRRIYNR-NH2; also: residues 14-19 stereorandomized (1:1 L/D mixture))", "MIC A. baumannii ATCC19606": "4 µg/mL"}
{"seq-text": "VDKPPYLPRPRPPRRIYNR [sr11Cterm-Onc] (VDKPPYLPRPRPPRRIYNR-NH2; also: residues 9-19 stereorandomized (1:1 L/D mixture))", "MIC A. baumannii ATCC19606": "4 µg/mL"}

----------
Listed here: items and their measured MIC E. coli BW25113 WT, 12.5% MH.
System: E. coli BW25113 WT
condition-details: Table S1; 12.5% Müller-Hinton medium pH 7.4; 16-20 h at 37 °C
No end group written: not given here.

{"substance": "VDKPPYLPRPRPPRRIYNR [sr14Nterm-Onc] (VDKPPYLPRPRPPRRIYNR-NH2; also: residues 1-14 stereorandomized (1:1 L/D mixture))", "MIC E. coli BW25113 WT, 12.5% MH [µg/mL]": 16}
{"substance": "VDKPPYLPRPRPPRRIYNR-NH2 [L-Onc, reference compound]", "MIC E. coli BW25113 WT, 12.5% MH [µg/mL]": 4}
{"substance": "VDKPPYLPRPRPPRRIYNR [sr-Onc] (VDKPPYLPRPRPPRRIYNR-NH2; also: all 19 residues stereorandomized (1:1 L/D mixture))", "MIC E. coli BW25113 WT, 12.5% MH [µg/mL]": 8}
{"substance": "VDKPPYLPRPRPPRRIYNR [sr9Cterm-Onc] (VDKPPYLPRPRPPRRIYNR-NH2; also: residues 11-19 stereorandomized (1:1 L/D mixture))", "MIC E. coli BW25113 WT, 12.5% MH [µg/mL]": 4}

----------
Tested on: S. aureus COL (MRSA)
procedure-details: microbe, parasite or virus in culture
condition-details: S. aureus COL (MRSA); full Müller–Hinton medium; 16–20 h at 37 °C
No end group written: not given here.
# MIC S. aureus, Full MHB values compiled below

{"seq-text": "VDKPPYLPRPRPPRRIYNR [srP45-Onc] (VDKPPYLPRPRPPRRIYNR-NH2; also: residues 4-5 (Pro-Pro) stereorandomized (1:1 L/D mixture))", "MIC S. aureus, Full MHB": ">64 / 64 μg/mL"}
{"seq-text": "VDKPPYLPRPRPPRRIYNR [sr12Cterm-Onc] (VDKPPYLPRPRPPRRIYNR-NH2; also: residues 8-19 stereorandomized (1:1 L/D mixture))", "MIC S. aureus, Full MHB": ">64 / 64 μg/mL"}
{"seq-text": "VDKPPYLPRPRPPRRIYNR [sr-Onc] (VDKPPYLPRPRPPRRIYNR-NH2; also: all 19 residues stereorandomized (1:1 L/D mixture))", "MIC S. aureus, Full MHB": ">64 / >64 μg/mL"}
{"seq-text": "VDKPPYLPRPRPPRRIYNR [sr14Nterm-Onc] (VDKPPYLPRPRPPRRIYNR-NH2; also: residues 1-14 stereorandomized (1:1 L/D mixture))", "MIC S. aureus, Full MHB": ">64 / >64 μg/mL"}
{"seq-text": "VDKPPYLPRPRPPRRIYNR [sr10Cterm-Onc] (VDKPPYLPRPRPPRRIYNR-NH2; also: residues 10-19 stereorandomized (1:1 L/D mixture))", "MIC S. aureus, Full MHB": "> 64 µg/mL"}
{"seq-text": "VDKPPYLPRPRPPRRIYNR [sr8Cterm-Onc] (VDKPPYLPRPRPPRRIYNR-NH2; also: residues 12-19 stereorandomized (1:1 L/D mixture))", "MIC S. aureus, Full MHB": "> 64 µg/mL"}

----------
Reported values of MIC K. pneumoniae OXA-48, 12.5% MHB for individual entries
Tested on: K. pneumoniae OXA-48
procedure-details: microbe, parasite or virus in culture
condition-details: carbapenem-resistant; 12.5% MHB pH 7.4; 16–20 h at 37 °C
No end group written: not given here.

{"substance": "VDKPPYLPRPRPPRRIYNR [sr8Cterm-Onc] (VDKPPYLPRPRPPRRIYNR-NH2; also: residues 12-19 stereorandomized (1:1 L/D mixture))", "MIC K. pneumoniae OXA-48, 12.5% MHB / µg/mL": 16}
{"substance": "VDKPPYLPRPRPPRRIYNR [sr9Cterm-Onc] (VDKPPYLPRPRPPRRIYNR-NH2; also: residues 11-19 stereorandomized (1:1 L/D mixture))", "MIC K. pneumoniae OXA-48, 12.5% MHB / µg/mL": 4}
{"substance": "VDKPPYLPRPRPPRRIYNR [sr5Cterm-Onc] (VDKPPYLPRPRPPRRIYNR-NH2; also: residues 15-19 stereorandomized (1:1 L/D mixture))", "MIC K. pneumoniae OXA-48, 12.5% MHB / µg/mL": 4}
{"substance": "VDKPPYLPRPRPPRRIYNR-NH2 [L-Onc, reference compound]", "MIC K. pneumoniae OXA-48, 12.5% MHB / µg/mL": 2}
